target: rat TAAR1 (Rattus norvegicus (Rat), UniProt Q923Y9); test: Radioligand binding assay on rat TAAR1; conditions: rat TAAR1 (second value of the cell); membranes of HEK-293 cells stably expressing rat TAAR1; read-out: Ki (μM) mouse/rat
Sequence (Q923Y9 whole entry): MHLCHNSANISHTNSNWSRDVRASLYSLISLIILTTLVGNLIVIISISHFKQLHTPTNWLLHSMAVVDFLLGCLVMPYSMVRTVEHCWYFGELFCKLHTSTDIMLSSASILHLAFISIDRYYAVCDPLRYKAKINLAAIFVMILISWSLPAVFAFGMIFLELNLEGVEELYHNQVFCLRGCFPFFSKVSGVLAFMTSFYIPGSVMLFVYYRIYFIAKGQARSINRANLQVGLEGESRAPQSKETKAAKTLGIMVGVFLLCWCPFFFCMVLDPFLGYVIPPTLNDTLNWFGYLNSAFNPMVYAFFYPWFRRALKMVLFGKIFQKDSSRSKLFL
measured.endpoint: Ki (µM)

{"compound": "O=C(Nc1ccc(C[C@@]23CN[C@@H](CO2)C3)cc1)Nc1cccc(C(F)(F)F)c1", "test.system": "rat TAAR1 (Rattus norvegicus (Rat), UniProt Q923Y9)", "reported": 0.0108}
{"compound": "FC(F)(F)c1ccc(Nc2ccc(C[C@@]34CN[C@@H](CO3)C4)cc2)nc1", "test.system": "rat TAAR1 (Rattus norvegicus (Rat), UniProt Q923Y9)", "reported": 0.141}
{"compound": "FC(F)(F)c1cnc(Nc2ccc(C[C@]34CN[C@H](CO3)C4)cc2)nc1", "test.system": "rat TAAR1 (Rattus norvegicus (Rat), UniProt Q923Y9)", "reported": 0.881}
{"compound": "O=C(Nc1ccc(C[C@]23CN[C@H](CO2)C3)cc1)c1ccc(OCC(F)(F)F)nc1", "test.system": "rat TAAR1 (Rattus norvegicus (Rat), UniProt Q923Y9)", "reported": 0.013}
{"compound": "O=C(Nc1ccc(C[C@]23CN[C@H](CO2)C3)cc1)c1ccc(OCC2CC2)cc1", "test.system": "rat TAAR1 (Rattus norvegicus (Rat), UniProt Q923Y9)", "reported": 0.0175}

A: CCCc1n[nH]c(C(=O)Nc2ccc(C[C@]34CN[C@H](CO3)C4)cc2)c1Cl
B: CCc1ncc(C(=O)Nc2ccc(C34CCC(CO3)NC4)cc2)cn1 (racemic)
C: O=C(Nc1ccc(C[C@]23CN[C@H](CO2)C3)cc1)Nc1ccc(C(F)(F)F)cc1
Ask: Rank the 3 compounds: largest Ki first, smallest last. Submit the labels in the order that the ranking request calls for.
Result: B, A, C

----------
Molecular target: mouse TAAR1 (Mus musculus (Mouse), UniProt Q923Y8)
Sequence (Q923Y8 whole entry): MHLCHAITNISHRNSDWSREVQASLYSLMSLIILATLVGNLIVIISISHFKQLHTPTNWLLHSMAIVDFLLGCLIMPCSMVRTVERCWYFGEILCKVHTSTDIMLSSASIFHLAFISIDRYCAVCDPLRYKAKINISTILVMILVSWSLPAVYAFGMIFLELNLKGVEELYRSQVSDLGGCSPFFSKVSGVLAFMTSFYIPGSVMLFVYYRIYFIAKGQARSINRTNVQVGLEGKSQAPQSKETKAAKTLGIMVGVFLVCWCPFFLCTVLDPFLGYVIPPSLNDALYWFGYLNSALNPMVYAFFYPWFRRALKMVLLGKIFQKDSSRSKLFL
Assay: Radioligand binding assay on mouse TAAR1
Settings: mouse TAAR1 (first value of the cell); membranes of HEK-293 cells stably expressing mouse TAAR1; read-out: Ki (μM) mouse/rat
Procedure: Construction of TAAR Expression Plasmids and Stably Transfected Cell Lines For the construction of expression plasmids the coding sequences of human, rat and mouse TAAR 1 were amplified from genomic DNA essentially as described by Lindemann et al.. The Expand High Fidelity PCR System (Roche Diagnostics) was used with 1.5 mM Mg^2+ and purified PCR products were cloned into pCR2.1-TOPO cloning vector (Invitrogen) following the instructions of the manufacturer. […]
measured.endpoint: Ki (µM)

{"compound": "O=C(Nc1ccc(C23CCC(CO2)NC3)cc1)c1cccc(Cl)c1 (stereo not drawn)", "readout.unit": "µM", "Ki": 0.0044}
{"compound": "O=C(Nc1ccc(C[C@@]23CN[C@@H](CO2)C3)cc1)Nc1ccccc1Cl", "readout.unit": "µM", "Ki": 0.0124}
{"compound": "Clc1ccc(Nc2ccc(C34CCC(CO3)NC4)cc2)nc1 (racemic)", "readout.unit": "µM", "Ki": 0.0141}
{"compound": "Clc1ccc(Nc2ccc([C@]34CN[C@H](CO3)C4)cc2)nc1", "readout.unit": "µM", "Ki": 0.0414}
{"compound": "O=C(Nc1ccc([C@@]23CN[C@@H](CO2)C3)cc1)c1ccnc(C(F)(F)F)c1", "readout.unit": "µM", "Ki": 0.0593}
{"compound": "O=C(Nc1ccc(C23CCC(CO2)NC3)cc1)c1ccc(OCC2CC2)cc1 (racemic)", "readout.unit": "µM", "Ki": 0.019}

A: O=C(Nc1ccc(C[C@]23CN[C@H](CO2)C3)cc1)c1[nH]nc(C2CC2)c1Cl
B: FC(F)(F)c1nccc(Nc2ccc(C34CCC(CO3)NC4)cc2)n1 (stereo not drawn)
C: O=C(Nc1ccc(C[C@@]23CN[C@@H](CO2)C3)cc1)c1ccc(Cl)cc1
Ask: Reorder: Ki, max to min. As an answer, provide the labels arranged in the order called for.
Result: A, B, C

1: O=C(Nc1ccc(Cl)cc1)Nc1ccc(C23CCC(CO2)NC3)cc1 (racemic)
2: CC(C)c1cc(C(=O)Nc2ccc(C[C@@]34CN[C@@H](CO3)C4)cc2)[nH]n1
3: FC(F)(F)c1cnc(Nc2ccc(C[C@]34CN[C@H](CO3)C4)cc2)nc1
4: O=C(Nc1ccc(C[C@]23CN[C@H](CO2)C3)cc1)Nc1ccc(C(F)(F)F)cc1
Ask: // smallest Ki at index 0, largest at the end Response field: labels, in requested order.
Result: 1, 2, 4, 3

P: O=C(Nc1ccc([C@]23CN[C@H](CO2)C3)cc1)c1cccc(Cl)c1
Q: O=C(Nc1ccc(C[C@]23CN[C@H](CO2)C3)cc1)c1ccnc(C(F)(F)F)c1
R: O=C(Nc1ccc(C[C@@]23CN[C@@H](CO2)C3)cc1)Nc1ccc(C(F)(F)F)cc1
Ask: Hey, quick one: sort these by Ki, largest value first please. Labels, requested order.
Result: Q, R, P
(Q: 0.238 µM, R: 0.0126 µM, P: 0.0054 µM)
